Answer each item with its documented IC50.
molecular target: SARS2 coronavirus 3CL protease (Severe acute respiratory syndrome coronavirus 2 (2019-nCoV) (SARS-CoV-2))
Numbers only, in nM.

# batch size: 5; output IC50 per entry
1. COC(=O)N[C@H](C(=O)N1CC2(CCCCC2)C[C@H]1C(=O)N[C@@H](CCC(C)(F)F)C(=O)C(=O)NC1CC1)C1CCOCC1 [Example 74]
2. COC(=O)N[C@H](C(=O)N1CC(C2CCCC2)C[C@H]1C(=O)N[C@@H](CCC(C)(F)F)C(=O)C(=O)NC1CC1)C(C)(C)C (single isomer, unassigned) [Example 3]
3. COC(=O)N[C@H](C(=O)N1C[C@H](C(F)(F)F)C[C@H]1C(=O)N[C@@H](CCC(C)(F)F)C(=O)C(=O)NC1CC1)C(C)(C)C [Example 67]
4. COC(=O)N[C@H](C(=O)N1CC[C@@H](C)C[C@H]1C(=O)N[C@@H](CCC(C)(F)F)C(=O)C(=O)NC1CC1)C(C)(C)C [Example 96]
5. CNC(=O)C(=O)[C@H](CCC(C)(F)F)NC(=O)[C@@H]1[C@@H](C(F)(F)F)CCN1C(=O)[C@@H](NC(=O)OC)C(C)(C)C [Example 81]

[69, 58, 20, 15, 44]

The reported value for COC(=O)N[C@H](C(=O)N1CCC(OC(F)F)CC1C(=O)N[C@@H](CCC(C)(F)F)C(=O)C(=O)NC1CC1)C(C)(C)C (single isomer, unassigned) [Example 109] in terms of IC50 is 50

---

Answer each item with its documented IC50.
biological target: SARS2 coronavirus 3CL protease (Severe acute respiratory syndrome coronavirus 2 (2019-nCoV) (SARS-CoV-2), UniProt P0DTD1); experiment: SARS2 Coronavirus 3CL Protease Assay (FRET); format: biochemical; conditions: SARS2 3CLPro FRET assay; 5 nM enzyme, 30 min pre-incubation with compound, 15 uM peptide substrate, 4 h room temperature
Numbers only, in µM.

INSERT INTO results (compound, unitofmeasurement, assayresult) VALUES
  ('COC(=O)N[C@H](C(=O)N1CCC2(CCCC2)CC1C(=O)N[C@@H](CCC(C)(F)F)C(=O)C(=O)NC1CC1)C(C)(C)C (single isomer, unassigned) [Example 34]', 'µM', 0.0074),
  ('COC(=O)N[C@H](C(=O)N1CCCC(C2CC2)C1C(=O)N[C@@H](CCC(C)(F)F)C(=O)C(=O)NC1CC1)C(C)(C)C (single isomer, unassigned) [Example 90]', 'µM', 0.016);

The reported value for COC(=O)N[C@H](C(=O)N1C[C@H](OC(F)(F)F)C(C)(C)[C@H]1C(=O)N[C@@H](CCC(C)(F)F)C(=O)C(=O)NC1CC1)C(C)(C)C [Example 48] in terms of IC50 is 0.045

---

Answer each item with its documented IC50.
target: SARS2 coronavirus 3CL protease (Severe acute respiratory syndrome coronavirus 2 (2019-nCoV) (SARS-CoV-2))
Answers are plain numbers, in nM.

// worked examples, IC50 included
INSERT INTO results (molecule, readoutlabel, assayresult) VALUES
  ('COC(=O)N[C@H](C(=O)N1C(C(=O)N[C@@H](CCC(C)(F)F)C(=O)C(=O)NC2CC2)[C@H]2CC[C@@H]1C2)C(C)(C)C (single isomer, unassigned) [Example 77]', 'IC50', 133),
  ('[2H]C([2H])([2H])NC(=O)C(=O)[C@H](CCC(C)(F)F)NC(=O)C1CC(C(F)(F)F)CCN1C(=O)[C@@H](NC(=O)OC([2H])([2H])[2H])C(C)(C)C (single isomer, unassigned) [Example 100]', 'IC50', 14);

Let us move to another entry and its IC50.
The reported value for COC(=O)N[C@H](C(=O)N1CC[C@@H](C(F)(F)F)C[C@H]1C(=O)N[C@@H](CCC(C)(F)F)C(=O)C(=O)NC1CC1)c1ccccc1 [Example 65] in terms of IC50 is 24

---

Answer each item with its documented pIC50.
biological target: SARS2 coronavirus 3CL protease (Severe acute respiratory syndrome coronavirus 2 (2019-nCoV) (SARS-CoV-2))
Give bare numbers, as −log10 of the molar value.

// worked examples, pIC50 included
INSERT INTO measurements (compound, readoutlabel, assayresult) VALUES
  ('COC(=O)N[C@H](C(=O)N1C2CCC(CC2)[C@H]1C(=O)N[C@@H](CCC(C)(F)F)C(=O)C(=O)NC1CC1)C(C)(C)C', 'pIC50', 7.43),
  ('COC(=O)N[C@@H](C)C(=O)N1CC2(CCCCC2)C[C@H]1C(=O)N[C@@H](CCC(C)(F)F)C(=O)C(=O)NC1CC1', 'pIC50', 7.16),
  ('COC(=O)N[C@H](C(=O)N1CC(C23CC(C2)C3)C[C@H]1C(=O)N[C@@H](CCC(C)(F)F)C(=O)C(=O)NC1CC1)C(C)(C)C (single isomer, unassigned)', 'pIC50', 7.54);

# batch size: 7; output pIC50 per entry
1. CNC(=O)C(=O)[C@H](CCC(C)(F)F)NC(=O)[C@@H]1[C@H]2CCC[C@H]2CN1C(=O)[C@@H](NC(=O)OCC(F)(F)F)C(C)(C)C
2. COC(=O)N[C@H](C(=O)N1CCC2(CC2)C[C@H]1C(=O)N[C@@H](CCC(C)(F)F)C(=O)C(N)=O)C(C)(C)C
3. COC(=O)N[C@H](C(=O)N1C[C@H]2[C@H](CCC2(F)F)[C@H]1C(=O)N[C@@H](CCC(C)(F)F)C(=O)C(=O)NC1CC1)C(C)(C)C
4. CNC(=O)C(=O)[C@H](CCC(C)(F)F)NC(=O)[C@@H]1CC[C@H](C)N1C(=O)[C@@H](NC(=O)OC)C(C)(C)C
5. CNC(=O)C(=O)[C@H](CCC(C)(F)F)NC(=O)C1CC2(CCC2)CN1C(=O)[C@@H](NC(=O)OC)C(C)(C)C (single isomer, unassigned)
6. CCOC(=O)N[C@H](C(=O)N1C[C@@H]2CCC[C@@H]2[C@H]1C(=O)N[C@@H](CCC(C)(F)F)C(=O)C(=O)NC)C(C)(C)C
7. CNC(=O)C(=O)[C@H](CCC(C)(F)F)NC(=O)[C@@H]1[C@@H]2[C@H](CN1C(=O)[C@@H](NC(=O)OC)C(C)(C)C)C21CCOCC1

[7.47, 8.13, 8.01, 6.59, 7.57, 7.68, 7.92]

The reported value for COC(=O)N[C@H](C(=O)N1CCC2(CC2)C[C@H]1C(=O)N[C@@H](CCC(C)(F)F)C(=O)C(=O)NC1CC1)C(C)(C)C in terms of pIC50 is 8.11

---

Answer each item with its documented IC50.
target: SARS2 coronavirus 3CL protease (Severe acute respiratory syndrome coronavirus 2 (2019-nCoV) (SARS-CoV-2))

// worked examples, IC50 included
INSERT INTO results (compound, assayresult) VALUES
  ('COC(=O)N[C@H](C(=O)N1CC(C2CCC2)C[C@H]1C(=O)N[C@@H](CCC(C)(F)F)C(=O)C(=O)NC1CC1)C(C)(C)C (single isomer, unassigned) [Example 1]', '28 nM'),
  ('COC(=O)N[C@H](C(=O)N1CCC(O)(C(F)(F)F)C[C@H]1C(=O)N[C@@H](CCC(C)(F)F)C(=O)C(=O)NC1CC1)C(C)(C)C (single isomer, unassigned) [Example 58]', '347 nM'),
  ('COC(=O)N[C@H](C(=O)N1CC2(C(F)(F)F)CCCC2C1C(=O)N[C@@H](CCC(C)(F)F)C(=O)C(=O)NC1CC1)C(C)(C)C (single isomer, unassigned) [Example 98]', '77 nM'),
  ('CNC(=O)C(=O)[C@H](CCC(C)(F)F)NC(=O)[C@@H]1CC2(CCC2(F)F)CN1C(=O)[C@@H](NC(=O)OC)C(C)(C)C (single isomer, unassigned) [Example 103]', '32 nM');

Let us move to another entry and its IC50.
The reported value for CNC(=O)C(=O)[C@H](CCC(C)(F)F)NC(=O)[C@@H]1[C@@H]2[C@H](CN1C(=O)[C@@H](NC(=O)OC)C(C)(C)C)C2(C)C [Example 39] in terms of IC50 is 12 nM
